TEST TARGET: Human PI3K beta (Homo sapiens)
Construct: His (N); host or cells: SF9 insect cells (baculovirus)
Sequence (P42338 whole entry): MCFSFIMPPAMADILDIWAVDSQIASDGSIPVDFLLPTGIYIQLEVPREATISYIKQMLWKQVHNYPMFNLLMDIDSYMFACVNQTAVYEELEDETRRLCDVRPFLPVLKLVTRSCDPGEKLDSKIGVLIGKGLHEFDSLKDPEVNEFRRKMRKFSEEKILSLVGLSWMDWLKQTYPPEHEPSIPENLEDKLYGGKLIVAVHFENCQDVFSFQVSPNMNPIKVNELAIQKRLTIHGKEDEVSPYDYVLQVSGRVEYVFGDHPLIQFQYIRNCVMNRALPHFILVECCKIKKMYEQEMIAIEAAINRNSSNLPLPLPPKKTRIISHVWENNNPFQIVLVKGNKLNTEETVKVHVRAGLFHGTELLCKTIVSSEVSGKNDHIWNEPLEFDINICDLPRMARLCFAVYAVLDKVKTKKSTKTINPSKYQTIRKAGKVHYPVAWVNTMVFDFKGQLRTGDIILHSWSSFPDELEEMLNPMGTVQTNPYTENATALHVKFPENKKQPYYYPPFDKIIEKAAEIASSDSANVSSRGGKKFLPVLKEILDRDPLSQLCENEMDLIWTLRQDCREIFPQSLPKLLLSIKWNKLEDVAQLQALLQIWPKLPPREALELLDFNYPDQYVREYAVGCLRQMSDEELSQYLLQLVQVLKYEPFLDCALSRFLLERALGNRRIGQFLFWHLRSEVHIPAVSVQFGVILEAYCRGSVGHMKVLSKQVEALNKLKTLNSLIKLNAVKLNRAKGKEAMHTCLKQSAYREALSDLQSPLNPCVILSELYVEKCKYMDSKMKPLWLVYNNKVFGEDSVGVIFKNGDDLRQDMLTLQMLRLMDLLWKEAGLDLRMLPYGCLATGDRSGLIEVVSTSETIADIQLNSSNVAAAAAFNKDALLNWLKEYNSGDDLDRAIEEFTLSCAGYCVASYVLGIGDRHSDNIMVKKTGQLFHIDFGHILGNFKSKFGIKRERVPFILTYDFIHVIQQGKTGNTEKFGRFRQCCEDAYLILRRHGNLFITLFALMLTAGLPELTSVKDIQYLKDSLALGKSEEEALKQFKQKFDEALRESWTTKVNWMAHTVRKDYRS
Sequence (P27986 whole entry partner): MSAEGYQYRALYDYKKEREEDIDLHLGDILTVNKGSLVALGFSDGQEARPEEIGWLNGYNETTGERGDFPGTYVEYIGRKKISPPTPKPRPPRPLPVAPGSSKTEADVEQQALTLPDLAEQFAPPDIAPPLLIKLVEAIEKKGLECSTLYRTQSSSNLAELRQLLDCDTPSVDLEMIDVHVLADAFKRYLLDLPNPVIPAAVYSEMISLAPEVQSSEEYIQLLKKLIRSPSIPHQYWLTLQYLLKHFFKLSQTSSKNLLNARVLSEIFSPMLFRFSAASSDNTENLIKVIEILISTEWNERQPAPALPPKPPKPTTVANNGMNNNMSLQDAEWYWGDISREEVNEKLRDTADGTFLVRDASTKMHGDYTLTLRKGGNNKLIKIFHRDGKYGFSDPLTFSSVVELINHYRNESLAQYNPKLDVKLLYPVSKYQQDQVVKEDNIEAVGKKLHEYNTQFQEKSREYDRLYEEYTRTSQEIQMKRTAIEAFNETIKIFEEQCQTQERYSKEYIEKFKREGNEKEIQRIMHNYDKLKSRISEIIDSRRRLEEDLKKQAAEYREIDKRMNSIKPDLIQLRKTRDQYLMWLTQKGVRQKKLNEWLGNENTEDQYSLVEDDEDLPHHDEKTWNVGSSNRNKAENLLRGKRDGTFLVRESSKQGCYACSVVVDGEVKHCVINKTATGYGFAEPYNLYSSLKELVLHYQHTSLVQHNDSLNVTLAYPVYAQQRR
ASSAY NOTES: Human PI3K beta enzyme assay (HTRF)
Type: biochemical
CONDITION LABEL: concentration not given; b1387 states 1.1 μM for PI3K α and β; read-out: p110 beta Percent Inhibition
QUANTITY KIND: inhibition at 1.1 µM (%)

>>> print(df.to_string())
                                   compound                     test_target  result
0  OC(c1ccccc1-c1cccnc1)c1cc(-c2ccncc2)sc1-c1nnc[nH]1 (centres unmarked) [Compound 276]  Human PI3K beta (Homo sapiens)      15

(A) O=C(O)c1sc(-c2ccncc2)cc1C(O)c1ccc2ccccc2c1 (centres unmarked) [Compound 205]
(B) N#Cc1c(-c2ccnnc2)sc(-c2nnc[nH]2)c1C(c1ccc(Cl)cc1)N1CCNCC1 (centres unmarked) [Compound 227]
Which one would you say has the larger inhibition at 1.1 µM value: A , or B ? Kindly give the label for the entry you pick.
A
(A: 114%, B: 76%)

* * *

TEST TARGET: Human PI3K alpha (Homo sapiens)
Construct: His (N); host or cells: SF9 insect cells (baculovirus)
Sequence (P42336 whole entry): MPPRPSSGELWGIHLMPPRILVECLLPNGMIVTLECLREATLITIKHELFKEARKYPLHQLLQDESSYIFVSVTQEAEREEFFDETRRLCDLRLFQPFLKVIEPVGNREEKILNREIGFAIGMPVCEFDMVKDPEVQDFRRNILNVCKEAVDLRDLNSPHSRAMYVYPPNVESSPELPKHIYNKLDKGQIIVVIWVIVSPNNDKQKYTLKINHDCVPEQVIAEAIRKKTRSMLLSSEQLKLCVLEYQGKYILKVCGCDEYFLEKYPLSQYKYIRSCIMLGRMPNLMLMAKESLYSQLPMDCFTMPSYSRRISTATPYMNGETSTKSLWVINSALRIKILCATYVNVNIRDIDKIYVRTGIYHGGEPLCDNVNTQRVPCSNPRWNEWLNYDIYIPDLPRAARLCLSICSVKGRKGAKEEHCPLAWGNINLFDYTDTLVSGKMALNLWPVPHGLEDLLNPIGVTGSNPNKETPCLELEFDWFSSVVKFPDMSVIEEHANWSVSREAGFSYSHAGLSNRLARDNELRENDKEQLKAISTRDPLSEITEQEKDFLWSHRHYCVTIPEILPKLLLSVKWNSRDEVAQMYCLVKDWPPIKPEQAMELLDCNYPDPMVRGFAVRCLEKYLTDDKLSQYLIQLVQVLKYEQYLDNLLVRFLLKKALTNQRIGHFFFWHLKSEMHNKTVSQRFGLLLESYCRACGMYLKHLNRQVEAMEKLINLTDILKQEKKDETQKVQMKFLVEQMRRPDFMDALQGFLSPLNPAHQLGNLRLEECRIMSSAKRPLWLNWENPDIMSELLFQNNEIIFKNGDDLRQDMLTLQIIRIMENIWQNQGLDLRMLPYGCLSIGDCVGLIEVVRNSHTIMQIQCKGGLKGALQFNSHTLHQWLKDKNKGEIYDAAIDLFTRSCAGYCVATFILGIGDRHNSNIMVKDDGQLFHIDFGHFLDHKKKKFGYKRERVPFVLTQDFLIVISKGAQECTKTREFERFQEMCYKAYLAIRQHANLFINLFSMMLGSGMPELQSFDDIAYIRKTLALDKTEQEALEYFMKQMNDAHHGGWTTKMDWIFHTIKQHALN
Sequence (P27986 whole entry partner): as the sequence (P27986 whole entry partner) above
ASSAY NOTES: Human PI3K alpha enzyme assay (HTRF)
Format: biochemical
CONDITION LABEL: concentration not given; b1387 states 1.1 μM for PI3K α and β; read-out: p110 alpha Percent Inhibition
QUANTITY KIND: inhibition at 1.1 µM (%)

                                   compound                      test_target  result
0  OC(c1ccc2c(c1)OC(F)(F)O2)c1cc(-c2ccncc2)sc1-c1nnc[nH]1 (stereo not drawn)  Human PI3K alpha (Homo sapiens)      21
1  N#Cc1c(N2CCOCC2)sc(C(=O)O)c1Cn1cnc2ccccc2c1=O  Human PI3K alpha (Homo sapiens)      47
2  CC(C)C(c1ccc(Cl)cc1)c1nc(N2CCOCC2)sc1C(=O)O (stereo not drawn)  Human PI3K alpha (Homo sapiens)       6
3  Cn1c(Cc2c(C(=O)O)sc(N3CCOCC3)c2C#N)cc2ccccc21  Human PI3K alpha (Homo sapiens)      85
4  COc1cnc(Cl)cc1-c1cc(C(O)c2ccc(Cl)cc2)c(-c2nnc[nH]2)s1 (stereo not drawn)  Human PI3K alpha (Homo sapiens)      15
5  CC(=O)Nc1cc(-c2cc(C(O)(C3=CCOCC3)c3ccc(Cl)cc3)c(-c3nnc[nH]3)s2)ccn1 (stereo not drawn)  Human PI3K alpha (Homo sapiens)      88
6  COC(c1ccc2ccccc2c1)c1c(C(=O)O)sc(N2CCOCC2)c1C#N (stereo not drawn)  Human PI3K alpha (Homo sapiens)      89
7  CC(=O)Nc1cc(-c2cc(C(c3ccc(Cl)cc3)N(C)C3CNC3)c(-c3nnc[nH]3)s2)ccn1 (stereo not drawn)  Human PI3K alpha (Homo sapiens)      98

(P) CC(=O)Nc1cc(-c2cc([C@@H](c3ccc(Cl)cc3)N(C)C)c(-c3nnc[nH]3)s2)ccn1 (single isomer, unassigned)
(Q) Cc1c(F)cccc1C(O)c1cc(-c2ccncc2)sc1-c1nnc[nH]1 (stereo not drawn)
Identify the entry with the smaller inhibition at 1.1 µM: P or Q . Answer by stating the label of the chosen item.
Q

* * *

TEST TARGET: Human PI3K delta (Homo sapiens)
Construct: His (N); host or cells: SF9 insect cells (baculovirus)
Sequence (O00329 whole entry, one chain of several): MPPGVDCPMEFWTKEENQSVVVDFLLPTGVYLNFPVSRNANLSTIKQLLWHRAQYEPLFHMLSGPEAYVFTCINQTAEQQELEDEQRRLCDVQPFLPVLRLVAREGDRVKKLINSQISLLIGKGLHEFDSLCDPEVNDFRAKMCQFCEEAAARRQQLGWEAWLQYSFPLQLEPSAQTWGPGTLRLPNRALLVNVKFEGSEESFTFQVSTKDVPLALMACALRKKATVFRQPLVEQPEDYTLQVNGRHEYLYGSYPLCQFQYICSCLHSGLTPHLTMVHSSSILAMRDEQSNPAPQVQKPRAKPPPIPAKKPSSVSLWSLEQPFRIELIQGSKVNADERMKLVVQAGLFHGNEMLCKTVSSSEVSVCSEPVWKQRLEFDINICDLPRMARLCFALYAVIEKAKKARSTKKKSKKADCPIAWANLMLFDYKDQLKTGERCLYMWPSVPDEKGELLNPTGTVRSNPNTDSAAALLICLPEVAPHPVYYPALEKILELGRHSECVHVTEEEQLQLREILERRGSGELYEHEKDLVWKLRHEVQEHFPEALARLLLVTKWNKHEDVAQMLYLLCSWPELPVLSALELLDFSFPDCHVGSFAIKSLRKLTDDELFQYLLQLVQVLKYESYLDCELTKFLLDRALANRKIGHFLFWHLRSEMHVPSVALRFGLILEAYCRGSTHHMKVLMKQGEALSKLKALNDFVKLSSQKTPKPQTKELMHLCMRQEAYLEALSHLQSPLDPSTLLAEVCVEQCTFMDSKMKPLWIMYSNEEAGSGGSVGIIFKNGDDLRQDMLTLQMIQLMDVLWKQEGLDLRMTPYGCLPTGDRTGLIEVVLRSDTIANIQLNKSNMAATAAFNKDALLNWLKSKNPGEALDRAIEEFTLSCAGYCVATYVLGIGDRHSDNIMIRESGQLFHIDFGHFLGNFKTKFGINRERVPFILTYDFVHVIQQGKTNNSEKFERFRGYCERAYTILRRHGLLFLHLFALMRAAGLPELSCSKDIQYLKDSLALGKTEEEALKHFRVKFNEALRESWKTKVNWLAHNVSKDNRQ
ASSAY NOTES: Human PI3K delta enzyme assay (HTRF)
Type: biochemical
CONDITION LABEL: concentration not given; b1389 states 1.0 μM for PI3K δ and γ; read-out: p110 delta Percent Inhibition
QUANTITY KIND: inhibition at 1 µM (%)

                                   compound  result
0  NC(=O)c1ccc2ccc(Cc3nc(N4CCOCC4)sc3C(=O)O)cc2c1 [Compound 318]      76
1  N#Cc1ccc2ccc(Cc3nc(N4CCOCC4)sc3C(=O)O)cc2c1 [Compound 325]      89
2  CC(=O)Nc1cc(-c2cc(C(N=[N+]=[N-])c3ccc(Cl)cc3)c(-c3nnc[nH]3)s2)ccn1 (centres unmarked) [Compound 211]     106
3  CC(=O)Nc1cc(-c2nc(Cc3ccc4ccccc4c3)c(-c3nnc[nH]3)s2)ccn1 [Compound 213]     109
4  COC(=O)NC(c1ccc2ccccc2c1)c1c(C(=O)O)sc(N2CCOCC2)c1C#N (centres unmarked) [Compound 354]      99
5  Cc1cc(-c2cc(C(c3ccc(Cl)cc3)N(C)C)c(-c3nnc[nH]3)s2)ccn1 (centres unmarked) [Compound 161]      40

(1) OC(c1ccccc1C(F)(F)F)c1cc(-c2ccncc2)sc1-c1nnc[nH]1 (centres unmarked) [Compound 193]
(2) N#Cc1c(-c2ccncc2)sc(-c2nnc[nH]2)c1Cc1ccc2ccccc2c1 [Compound 148]
Endpoint returns the identifier whose inhibition at 1 µM is numerically larger, either 1 or 2 . Which one? Tell me its label.
2
(2: 69%, 1: 46%)

* * *

TEST TARGET: Human PI3K alpha (Homo sapiens)
Construct: His (N); host or cells: SF9 insect cells (baculovirus)
ASSAY NOTES: Human PI3K alpha enzyme assay (HTRF)
Format: biochemical
CONDITION LABEL: concentration not given; b1387 states 1.1 μM for PI3K α and β; read-out: p110 alpha Percent Inhibition
QUANTITY KIND: inhibition at 1.1 µM (%)

Use these answered entries as a reference point.
>>> df
                                   compound  result
0  CC(c1ccc(Cl)c(Cl)c1)c1c(C(=O)O)sc(N2CCOCC2)c1C#N (centres unmarked)      67
1  CC(=O)Nc1cc(-c2cc(C(c3ccc(Cl)cc3)N3CC[C@H](O)C3)c(-c3nnc[nH]3)s2)ccn1 (some centres unmarked)     100

(1) COc1ccc2ccc(Cc3c(C(=O)O)sc(N4CCOCC4)c3C#N)cc2c1
(2) COC(=O)Nc1cc(-c2sc(C(=O)O)c(Cc3ccc4ccccc4c3)c2C#N)ccn1
(3) N#Cc1c(N2CCOCC2)sc(C(=O)O)c1C(N)c1ccc(Cl)c(Cl)c1 (centres unmarked)
Number of compounds to sort: 3. Sort criterion: inhibition at 1.1 µM, ascending. Sort the labels as requested; that list is your answer.
3, 2, 1
(3: 36%, 2: 60%, 1: 104%)

* * *

Assay system Human PI3K alpha (Homo sapiens, UniProt P42336); read-out recorded as pIC50.
pIC50: −log10 of the molar value.

Known pIC50 results, listed for orientation:
>>> df
                                   molecule        result
0  Cc1nn2ccc(CNCc3ccccc3)cc2c1-c1nc(Cc2ccc(Cl)cc2)c(-c2nnc[nH]2)s1 [Compound 32]  6.00 to 7.00
1  OC(c1ccc(Cl)cc1)c1cc(-c2ccnc(Cl)c2)sc1-c1nnc[nH]1 (stereo not drawn) [Compound 14]  6.00 to 7.00
2  Cc1nn2ccc(CNCCN)cc2c1-c1nc(Cc2ccc(Cl)cc2)c(-c2nnc[nH]2)s1 [Compound 54]  6.00 to 7.00
3  c1ccc2cc(Cc3nc(-c4ccncc4)sc3-c3nnc[nH]3)ccc2c1 [Compound 87]        < 6.00
4  CC(=O)Nc1cc(-c2cc(C(c3ccc(Cl)cc3)N(C)C)c(-c3nnc[nH]3)s2)ccn1 (stereo not drawn) [Compound 86]  6.00 to 7.00
5  CC(C)NC(c1ccc(Cl)cc1)c1cc(-c2ccncc2)sc1-c1nnc[nH]1 (stereo not drawn) [Compound 33]        < 6.00
6  CC(=O)Nc1cc(-c2sc(C(=O)O)c(Cc3ccc(Cl)cc3)c2C#N)ccn1 [Compound 74]  6.00 to 7.00
7  O[C@H](c1ccc(Cl)cc1)c1cc(-c2ccncc2)sc1-c1nnc[nH]1 [Compound 77]        < 6.00

Which pIC50 value belongs to N#Cc1cc(-c2cc([C@@H](O)c3ccc(Cl)cc3)c(-c3nnc[nH]3)s2)ccn1 [Compound 48] ?
6.00 to 7.00

* * *

TEST TARGET: Human PI3K beta (Homo sapiens)
Construct: His (N); host or cells: SF9 insect cells (baculovirus)
ASSAY NOTES: Human PI3K beta enzyme assay (HTRF)
Format: biochemical
CONDITION LABEL: concentration not given; b1387 states 1.1 μM for PI3K α and β; read-out: p110 beta Percent Inhibition
QUANTITY KIND: inhibition at 1.1 µM (%)

                                   compound                     test_target  unit_annotation  result
0  CC(=O)Nc1cc(-c2cc(C(O)(c3ccc(Cl)cc3)C3CCN(C)CC3)c(-c3nnc[nH]3)s2)ccn1 (centres unmarked) [Compound 237]  Human PI3K beta (Homo sapiens)                %      89
1  N#Cc1c(N2CCOCC2)sc(C(=O)O)c1Cc1ccc2sccc2c1 [Compound 311]  Human PI3K beta (Homo sapiens)                %     104
2  O=C(NO)c1sc(N2CCOCC2)nc1Cc1ccc(Cl)c(Cl)c1 [Compound 298]  Human PI3K beta (Homo sapiens)                %      95
3  Cn1c(Cc2c(C(=O)O)sc(N3CCOCC3)c2C#N)cc2ccccc21 [Compound 330]  Human PI3K beta (Homo sapiens)                %     109
4  N#Cc1c(N2CCOCC2)sc(C(=O)O)c1C(N)c1ccc(Cl)c(Cl)c1 (centres unmarked) [Compound 291]  Human PI3K beta (Homo sapiens)                %     107

Every entry's value here was drawn from patent US8796268B2.
